Recorded values, source paper PMC10049699.

- assayed.system: ABCB1 (Homo sapiens)
- Construct: expressed in transfected cells
- protocol.text: calcein-AM drug transport (accumulation) assay in live Flp-In-ABCB1 cells, flow cytometry
- Type: cell-based
- condition.set: ratio of IC50 values, calcein-AM assay
parameter.measured: fold less potent than tariquidar (fold)
Numbers only, in fold.

Examples with their reported fold less potent than tariquidar follow.
O=C1CCC(CCNCc2ccccc2)N1Cc1ccc(-n2cccn2)cc1 (stereo not shown) [A]	12
Cc1cccc(N2CCN(CC(=O)Nc3nnc(CCN(C)C)s3)CC2)c1 [D]	200
Cc1cccc(N2CCN(c3cc(C4CC(N)C4)nc(C4CC4)n3)CC2)c1C.Cl.Cl (stereo not shown) [F]	42

Consider the additional molecule presented here.
Any idea what fold less potent than tariquidar came out for Cc1ccc(N2CCN(c3cc(C4CC(N)C4)nc(N)n3)CC2)cc1C (stereo not shown) [E] on ABCB1 (Homo sapiens)?
128

* * *

Answer each item with its documented mean bottom plateau value of ABCB1 activity curve (efficacy).
- assayed.system: ABCB1 (Homo sapiens)
- Construct: expressed in transfected cells
- protocol.text: calcein-AM drug transport (accumulation) assay in live Flp-In-ABCB1 cells, flow cytometry
- Assay type: cell-based
- condition.set: ratio of calcein content of ABCB1 non-expressing cells to whole population; full inhibition at 1.0
Answers are plain numbers.

O=C1CCC(CCNCc2ccccc2)N1Cc1ccc(-n2cccn2)cc1 (centres unmarked)	1.0
Cc1cccc(N2CCN(c3cc(C4CC(N)C4)nc(C4CC4)n3)CC2)c1C.Cl.Cl (centres unmarked)	0.36
COc1cc2c(cc1OC)CN(CCc1ccc(NC(=O)c3cc(OC)c(OC)cc3NC(=O)c3cnc4ccccc4c3)cc1)CC2 [Tariquidar, reference compound]	0.78

For each of the items listed, what is its mean bottom plateau value of ABCB1 activity curve (efficacy)?
1. Cc1cccc(N2CCN(CC(=O)Nc3nnc(CCN(C)C)s3)CC2)c1
2. Cc1ccc(N2CCN(c3cc(C4CC(N)C4)nc(N)n3)CC2)cc1C (centres unmarked)

1. 0.58
2. 0.93

* * *

- assayed.system: ABCB1 (Homo sapiens, UniProt P08183)
- Sequence (P08183 whole entry): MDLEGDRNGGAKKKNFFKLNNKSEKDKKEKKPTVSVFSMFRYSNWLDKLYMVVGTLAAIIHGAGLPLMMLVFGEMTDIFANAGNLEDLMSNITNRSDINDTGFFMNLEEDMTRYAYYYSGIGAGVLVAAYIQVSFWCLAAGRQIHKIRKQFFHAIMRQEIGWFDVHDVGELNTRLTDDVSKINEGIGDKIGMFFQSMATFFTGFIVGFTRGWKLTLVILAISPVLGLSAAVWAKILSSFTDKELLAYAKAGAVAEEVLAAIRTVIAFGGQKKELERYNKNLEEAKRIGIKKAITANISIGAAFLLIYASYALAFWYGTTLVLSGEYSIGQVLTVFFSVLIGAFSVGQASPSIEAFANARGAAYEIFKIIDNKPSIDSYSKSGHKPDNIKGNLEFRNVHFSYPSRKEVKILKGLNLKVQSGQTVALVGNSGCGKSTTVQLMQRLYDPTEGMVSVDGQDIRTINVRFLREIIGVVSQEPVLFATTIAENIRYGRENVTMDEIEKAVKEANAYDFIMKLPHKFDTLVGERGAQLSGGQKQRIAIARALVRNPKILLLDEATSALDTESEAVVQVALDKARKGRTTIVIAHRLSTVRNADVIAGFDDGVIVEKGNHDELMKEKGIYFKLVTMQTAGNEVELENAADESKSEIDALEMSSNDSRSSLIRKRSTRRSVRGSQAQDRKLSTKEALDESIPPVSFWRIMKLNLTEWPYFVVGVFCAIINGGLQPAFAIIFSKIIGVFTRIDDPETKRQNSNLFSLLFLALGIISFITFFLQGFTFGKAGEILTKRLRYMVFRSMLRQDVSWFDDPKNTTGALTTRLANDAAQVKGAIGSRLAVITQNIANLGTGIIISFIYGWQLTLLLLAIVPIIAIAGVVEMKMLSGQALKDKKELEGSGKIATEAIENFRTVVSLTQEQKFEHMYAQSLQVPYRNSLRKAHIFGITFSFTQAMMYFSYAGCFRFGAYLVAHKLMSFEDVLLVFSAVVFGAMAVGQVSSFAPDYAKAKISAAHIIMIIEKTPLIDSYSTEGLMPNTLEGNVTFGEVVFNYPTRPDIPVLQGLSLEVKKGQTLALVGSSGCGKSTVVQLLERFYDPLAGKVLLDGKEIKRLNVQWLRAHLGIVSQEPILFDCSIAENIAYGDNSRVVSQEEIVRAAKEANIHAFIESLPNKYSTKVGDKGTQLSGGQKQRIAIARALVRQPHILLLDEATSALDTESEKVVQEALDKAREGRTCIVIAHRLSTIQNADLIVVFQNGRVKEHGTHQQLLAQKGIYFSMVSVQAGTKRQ
- protocol.text: calcein-AM drug transport (accumulation) assay in live Flp-In-ABCB1 cells, flow cytometry
- condition.set: Flp-In-ABCB1 cells, 250 nM calcein-AM, 30 min, n = 3 biological repeats; read-out: IC50 for inhibition of ABCB1 transport activity
pIC50: −log10 of the molar value.
Class TRUE: pIC50 at least 8. Class FALSE: pIC50 below 8.

Solved entries:
O=C1CCC(CCNCc2ccccc2)N1Cc1ccc(-n2cccn2)cc1 (centres unmarked) [A]	TRUE
Cc1cccc(N2CCN(c3cc(C4CC(N)C4)nc(C4CC4)n3)CC2)c1C.Cl.Cl (centres unmarked) [F]	TRUE
COc1cc2c(cc1OC)CN(CCc1ccc(NC(=O)c3cc(OC)c(OC)cc3NC(=O)c3cnc4ccccc4c3)cc1)CC2 [Tariquidar, reference compound]	TRUE

Continue with the compound presented below.
I'd appreciate it if you could say whether Cc1cccc(N2CCN(CC(=O)Nc3nnc(CCN(C)C)s3)CC2)c1 [D] has pIC50 at least equal to 8.
FALSE
